- Tested on: HepG2
- assay details: drug sensitivity score (DSS) for viability; higher = more toxic; extreme values may be limits of the assay
- measurement parameters: 72 h
endpoint name: drug sensitivity score
Numbers only.

Reference set (6 entries):
- compound: "COc1ccc(-c2cc(=O)c3c(O)cc(O)cc3o2)cc1O"
  study system: "HepG2"
  drug sensitivity score: 0
- compound: "O=C1CC(=O)c2c(Cl)c(Cl)c(Cl)c(Cl)c21"
  study system: "HepG2"
  drug sensitivity score: 0
- compound: "C[C@H](CCC(=O)O)[C@H]1CC[C@H]2[C@@H]3C[C@H](O)[C@@H]4C[C@H](O)CC[C@]4(C)[C@H]3CC[C@]12C"
  study system: "HepG2"
  drug sensitivity score: 0
- compound: "COc1ccccc1OCC(O)CNC(C)C (configuration not stated)"
  study system: "HepG2"
  drug sensitivity score: 0
- compound: "O=C1CCCN1CC#CCN1CCCC1 [oxotremorine-sesquifumarate]"
  study system: "HepG2"
  drug sensitivity score: 0.9
- compound: "O=C(O)CCc1ccc(NCc2cccc(Oc3ccccc3)c2)cc1"
  study system: "HepG2"
  drug sensitivity score: 0

For every listed record, write down its drug sensitivity score.
1. O=C(/C=C/c1ccc(O)c2c1[C@H](C(=O)O[C@H](Cc1ccc(O)c(O)c1)C(=O)O)[C@@H](c1ccc(O)c(O)c1)O2)O[C@H](Cc1ccc(O)c(O)c1)C(=O)O
2. CC(Cc1cccc(C(F)(F)F)c1)NCCOC(=O)c1ccccc1 (configuration not stated)
3. COc1ccc(Cl)cc1[C@]1(F)C(=O)Nc2cc(C(F)(F)F)ccc21
4. CC[C@H]1OC(=O)[C@H](C)C(=O)[C@H](C)[C@@H](O[C@@H]2O[C@H](C)C[C@H](N(C)C)[C@H]2O)[C@](C)(OC)C[C@@H](C)C(=O)[C@H](C)[C@H]2N(CCCCn3cnc(-c4cccnc4)c3)C(=O)O[C@]12C
5. CC(C)N(CCC(=O)c1ccc2ccccc2c1)Cc1ccccc1
6. Cc1c(C(=O)NC2CCCCC2)sc2nc3ccc(N)cc3n12

[0, 0, 0, 0, 1.4, 0]

---

Can you tell me cell viability for the items I'm about to list?
- System: Calu-3
- assay details: cell viability relative to DMSO; higher = less toxic
- measurement parameters: 72 h; 1 nM
Numbers only, in %.

Reference set (10 entries):
- compound: "Cc1cccc(Cc2c[nH]cn2)c1C [detomidine]"
  cell viability (%): 99.7
- compound: "C1CCC(NC2CCCCC2)CC1 [dicyclohexylamine]"
  cell viability (%): 96.6
- compound: "CNCCn1c(=O)c2cc(OC)c(OC)cc2c2cnc3cc4c(cc3c21)OCO4"
  cell viability (%): 95.8
- compound: "COc1ccc(C2C(=O)c3ccccc3C2=O)cc1 [anisindione]"
  cell viability (%): 112
- compound: "COc1cc(OC)c(OC)cc1C=O [asaraldehyde]"
  cell viability (%): 87
- compound: "c1ccc(CN(CC2=NCCN2)c2ccccc2)cc1 [antazoline]"
  cell viability (%): 90.2
- compound: "Cc1[nH]c(=O)c(C#N)cc1-c1ccc2nccn2c1 [olprinone]"
  cell viability (%): 107
- compound: "COC(=O)Nc1nc2cc(Sc3ccccc3)ccc2[nH]1 [fenbendazole]"
  cell viability (%): 98.1
- compound: "O=C1CCc2ccc(OCCCCN3CCN(c4cccc(Cl)c4Cl)CC3)cc2N1 [aripiprazole]"
  cell viability (%): 98.5
- compound: "CCN1CCN(c2ccc(C(C)(C)NC(=O)c3cc4[nH]c5ccccc5c(=O)c4cc3F)cn2)CC1"
  cell viability (%): 96.4

For every listed record, write down its cell viability.
1. COc1ccnc(C[S+]([O-])c2nc3cc(OC(F)F)ccc3[nH]2)c1OC (stereo unspecified) [pantoprazole]
2. CCCc1nc(C(C)(C)O)c(C(=O)OCc2oc(=O)oc2C)n1Cc1ccc(-c2ccccc2-c2nnn[nH]2)cc1 [olmesartan-medoxomil]
3. c1ccc2c(c1)CCCC2C1=NCCN1 (stereo unspecified) [tetrahydrozoline]

1: 99; 2: 91.5; 3: 109

For every listed record, write down its cell viability.
1. CCOC(N)=O [urethane]
2. CCOC(=O)Nc1ccc2c(c1)N(C(=O)CN(CC)CC)c1ccccc1CC2 [CINPA-1]
3. NC(=O)c1cccnc1 [nicotinamide]

1: 105; 2: 109; 3: 107

For every listed record, write down its cell viability.
1. Cc1cc(C(N)=O)ccc1-n1c(CCC(=O)O)ccc1-c1ccc(-n2ccnc2)cc1 [N6022]
2. O=C(c1ccc(F)cc1)C1CCN(CCn2c(=S)[nH]c3ccccc3c2=O)CC1 [altanserin]
3. C[n+]1c2cc(N)ccc2cc2ccc(N)cc21.Nc1ccc2cc3ccc(N)cc3nc2c1 [acriflavine]

1. 99.1
2. 104
3. 103

For every listed record, write down its cell viability.
1. Cc1ccc(-c2csc(NC(=O)c3ccccc3)n2)c(C)c1 [INH1]
2. COc1ccc(/C=C2\CCCN=C2c2cccnc2)c(OC)c1 [GTS21]

96.9
97.4

---

- Tested on: Vero E6
- assay details: cell viability relative to DMSO; higher = less toxic
- measurement parameters: 72 h; 1 nM
Can you tell me cell viability for the items I'm about to list?
One number for each entry, in %.

- compound: "CC(C)n1nc(-c2cc3cc(O)ccc3[nH]2)c2c(N)ncnc21"
  cell viability (%): 107
- compound: "CC(CCc1ccc(O)cc1)NCC(O)c1ccc(O)cc1 (stereo not given)"
  cell viability (%): 115
- compound: "O=C(O[C@@H]1Cc2c(O)cc(O)cc2O[C@@H]1c1ccc(O)c(O)c1)c1cc(O)c(O)c(O)c1 [epicatechin-gallate-(-)]"
  cell viability (%): 105
- compound: "N=C(NCCC[C@H](N)C(=O)O)N[N+](=O)[O-]"
  cell viability (%): 104

Quote cell viability reported for C#C[C@]1(O)CC[C@H]2[C@@H]3CCC4=CC(=O)CCC4=C3C=C[C@@]21CC please.
96.6

---

Can you tell me cell viability for the items I'm about to list?
- System: Vero E6
- assay details: cell viability relative to DMSO; higher = less toxic
- measurement parameters: 72 h; 1000 nM
Give bare numbers, in %.

- compound structure: "CCCCC1=NC2(CCCC2)C(=O)N1Cc1ccc(-c2ccccc2-c2nnn[nH]2)cc1"
  units: "%"
  cell viability: 93.6
- compound structure: "CNC(=O)[C@@H](Cc1ccccc1)N(C)C(=O)[C@@H](Cc1ccc2ccccc2c1)N(C)C(=O)/C=C/CC(C)(C)N"
  units: "%"
  cell viability: 102
- compound structure: "COC(=O)Nc1nc2cc(Sc3ccccc3)ccc2[nH]1"
  units: "%"
  cell viability: 90.2

// moving on: another record for cell viability
Quote cell viability reported for Cc1cc(C(N)=O)ccc1-n1c(CCC(=O)O)ccc1-c1ccc(-n2ccnc2)cc1 please.
94

---

- System: Vero E6
- assay details: relative viability EC50 (midpoint between 100% and the lowest measured viability); higher = less toxic
- measurement parameters: 72 h
Can you tell me relative viability EC50 for the items I'm about to list?

Reference set (4 entries):
- compound: "CN(C)CCc1c[nH]c2ccc(C[C@H]3COC(=O)N3)cc12 [zolmitriptan]"
  recorded value: "> 10 µM"
- compound: "O=C(NNc1ccccc1)c1ccncc1 [plurisin-1]"
  recorded value: "> 10 µM"
- compound: "OCCN1CCN(CC/C=C2/c3ccccc3Sc3ccc(Cl)cc32)CC1 [zuclopenthixol]"
  recorded value: "> 10 µM"
- compound: "CCCCCCCCCCCCCCOC(=O)c1cccnc1 [myristyl-nicotinate]"
  recorded value: "> 10 µM"

Quote relative viability EC50 reported for CNC(=O)c1cccc(NC(=O)N2CCC(Oc3ccccc3Cl)CC2)c1 please.
> 10 µM

---

- Tested on: HepG2
- assay details: cell viability relative to DMSO; higher = less toxic
- measurement parameters: 72 h; 1000 nM
endpoint name: cell viability (%)
Answers are plain numbers, in %.

- molecule: "N[C@@H](CSS(=O)(=O)O)C(=O)O [S-sulfo-L-cysteine]"
  recorded value: 94.8

For every listed record, write down its cell viability.
1. Cc1cc(C)cc(C(=O)N(C)[C@H](Cc2ccc(-c3ccccc3)cc2)C(=O)N[C@@H](Cc2c[nH]c3ccccc23)C(=O)O)c1 [IRL-2500]
2. C=C(c1ccc(C(=O)O)cc1)c1cc2c(cc1C)C(C)(C)CCC2(C)C [bexarotene]

[116, 99.7]

For every listed record, write down its cell viability.
1. Cc1ccc(/N=C/N(C)/C=N/c2ccc(C)cc2C)c(C)c1 [amitraz]
2. CCOC(=O)[C@H](Cc1ccccc1)NC(=O)c1cc(Cl)c(OCCN2CCN(C)CC2)c(Cl)c1O [JTE-607]
3. CCCc1c2oc(C(=O)O)cc(=O)c2cc2c(=O)cc(C(=O)O)n(CC)c12 [nedocromil]
4. COc1ccc(C2(O)CCC(N3CC[C@@H](NC(=O)CNC(=O)c4cccc(C(F)(F)F)c4)C3)CC2)cn1 (some centres undefined)
5. C[C@@H](N[C@H]1CCCC[C@@H]1NC(=O)c1ccc(Cl)cc1)c1cccc2ccccc12 [Calhex-231]

87.4
56.8
90.6
94.8
97.9

For every listed record, write down its cell viability.
1. COc1ccc(CCN(C)CCCN2CCc3cc(OC)c(OC)cc3CC2=O)cc1OC [zatebradine]
2. Cc1nc2ccccc2n1Cc1ccc(Cl)cc1 [chlormidazole]
3. CC(=O)c1cc([N+](=O)[O-])c(Sc2cccc(Cl)c2Cl)s1 [P5091]
4. Cc1cc(C(=CNc2ccc(Cl)cc2)C(=O)Nc2ccc(Cl)cc2)on1 [CCMI]
5. c1ccc2c(c1)CCCC2C1=NCCN1 (centres undefined) [tetrahydrozoline]
6. CC(=O)OCC(=O)[C@@]1(O)CC[C@H]2[C@@H]3CCC4=CC(=O)C=C[C@]4(C)[C@@]3(Cl)[C@@H](Cl)C[C@@]21C [dichlorisone-acetate]

[103, 92.1, 105, 107, 100, 99.3]
